Quick reference: LD50 of the listed items.
# PROTOCOL_TEXT: Acute toxicity in the rat (DL50, Litchfield and Wilcoxon method)
# REPORTED_CONDITIONS: in vivo, ip
# Experimental: where R is as defined above, in the presence of an alkaline carbonate and of a catalyst, to obtain the corresponding formula (I) compound, as defined above, which, optionally, is salified. […] The complete reliability of the new compounds was determined by evaluating their acute toxicity. […] The DL50 values were calculated by following the Litchfield and Wilcoxon method (Pharm. Exp. Therap. 1949, 96,99).
// note: answer is a bare numeric in mg/kg

1) Cc1ccc(C(C)C)cc1OCC(=O)O[C@H]1CC[C@H](NCc2cc(Br)cc(Br)c2N)CC1 :: 530
2) COc1ccccc1OCC(=O)O[C@H]1CC[C@H](NCc2cc(Br)cc(Br)c2N)CC1 :: 532
3) Cc1ccc(C(C)C)c(OCC(=O)O[C@H]2CC[C@H](NCc3cc(Br)cc(Br)c3N)CC2)c1 :: 540
4) COc1cc(C)ccc1OCC(=O)O[C@H]1CC[C@H](NCc2cc(Br)cc(Br)c2N)CC1 :: 550
5) Cc1ccccc1OCC(=O)O[C@H]1CC[C@H](NCc2cc(Br)cc(Br)c2N)CC1 :: 500
6) Cc1ccc(OCC(=O)O[C@H]2CC[C@H](NCc3cc(Br)cc(Br)c3N)CC2)cc1 :: 500
7) Nc1c(Br)cc(Br)cc1CN[C@H]1CC[C@H](O)CC1 [Ambroxol Hydrochlorate, reference compound] :: 380

In the following, a different molecule is considered.
INPUT: Consider the molecule Cc1cccc(OCC(=O)O[C@H]2CC[C@H](NCc3cc(Br)cc(Br)c3N)CC2)c1 and give its measured LD50.
OUTPUT: 510

====

Quick reference: LD50 of the listed items.
# PROTOCOL_TEXT: Acute toxicity in the guinea pig (DL50, Litchfield and Wilcoxon method)
# REPORTED_CONDITIONS: in vivo, ip
Answer format reminder: number followed by unit.

# example entries with known answers
1. Cc1cccc(OCC(=O)O[C@H]2CC[C@H](NCc3cc(Br)cc(Br)c3N)CC2)c1 :: 380 mg/kg
2. Nc1c(Br)cc(Br)cc1CN[C@H]1CC[C@H](O)CC1 [Ambroxol Hydrochlorate, reference compound] :: 280 mg/kg
3. Cc1ccccc1OCC(=O)O[C@H]1CC[C@H](NCc2cc(Br)cc(Br)c2N)CC1 :: 375 mg/kg

INPUT: Consider the molecule Cc1ccc(OCC(=O)O[C@H]2CC[C@H](NCc3cc(Br)cc(Br)c3N)CC2)cc1 and give its measured LD50.
OUTPUT: 380 mg/kg

INPUT: COc1ccccc1OCC(=O)O[C@H]1CC[C@H](NCc2cc(Br)cc(Br)c2N)CC1 ?
OUTPUT: 390 mg/kg

INPUT: COc1cc(C)ccc1OCC(=O)O[C@H]1CC[C@H](NCc2cc(Br)cc(Br)c2N)CC1 ?
OUTPUT: 400 mg/kg

INPUT: Cc1ccc(C(C)C)c(OCC(=O)O[C@H]2CC[C@H](NCc3cc(Br)cc(Br)c3N)CC2)c1 ?
OUTPUT: 400 mg/kg

INPUT: Cc1ccc(C(C)C)cc1OCC(=O)O[C@H]1CC[C@H](NCc2cc(Br)cc(Br)c2N)CC1 ?
OUTPUT: 410 mg/kg

====

Quick reference: LD50 of the listed items.
# PROTOCOL_TEXT: Acute toxicity in the mouse (DL50, Litchfield and Wilcoxon method)
# Type: in vivo
# REPORTED_CONDITIONS: in vivo, iv
Answer format reminder: number followed by unit.

# example entries with known answers
1) Cc1ccc(C(C)C)c(OCC(=O)O[C@H]2CC[C@H](NCc3cc(Br)cc(Br)c3N)CC2)c1 [E/6006] :: 197 mg/kg
2) Cc1cccc(OCC(=O)O[C@H]2CC[C@H](NCc3cc(Br)cc(Br)c3N)CC2)c1 [E/6003] :: 187 mg/kg
3) COc1ccccc1OCC(=O)O[C@H]1CC[C@H](NCc2cc(Br)cc(Br)c2N)CC1 [E/6001] :: 194 mg/kg
4) Cc1ccccc1OCC(=O)O[C@H]1CC[C@H](NCc2cc(Br)cc(Br)c2N)CC1 [E/6004] :: 187 mg/kg
5) Cc1ccc(C(C)C)cc1OCC(=O)O[C@H]1CC[C@H](NCc2cc(Br)cc(Br)c2N)CC1 [E/6007] :: 190 mg/kg
6) Nc1c(Br)cc(Br)cc1CN[C@H]1CC[C@H](O)CC1 [Ambroxol Hydrochlorate, reference compound] :: 138 mg/kg
7) Cc1ccc(OCC(=O)O[C@H]2CC[C@H](NCc3cc(Br)cc(Br)c3N)CC2)cc1 [E/6005] :: 180 mg/kg

In the following, a different molecule is considered.
INPUT: Consider the molecule COc1cc(C)ccc1OCC(=O)O[C@H]1CC[C@H](NCc2cc(Br)cc(Br)c2N)CC1 [E/6002] and give its measured LD50.
OUTPUT: 201 mg/kg

====

# PROTOCOL_TEXT: Acute toxicity in the mouse (DL50, Litchfield and Wilcoxon method)
# Assay type: in vivo
# REPORTED_CONDITIONS: in vivo, po, os
QUANTITY_NAME: LD50 (mg/kg)
// note: answer is a bare numeric in mg/kg

# example entries with known answers
1) Cc1ccc(C(C)C)c(OCC(=O)O[C@H]2CC[C@H](NCc3cc(Br)cc(Br)c3N)CC2)c1 [E/6006] :: 3900
2) Cc1ccc(OCC(=O)O[C@H]2CC[C@H](NCc3cc(Br)cc(Br)c3N)CC2)cc1 [E/6005] :: 3700
3) Cc1ccccc1OCC(=O)O[C@H]1CC[C@H](NCc2cc(Br)cc(Br)c2N)CC1 [E/6004] :: 3700

INPUT: Consider the molecule Cc1ccc(C(C)C)cc1OCC(=O)O[C@H]1CC[C@H](NCc2cc(Br)cc(Br)c2N)CC1 [E/6007] and give its measured LD50.
OUTPUT: 3900

INPUT: COc1ccccc1OCC(=O)O[C@H]1CC[C@H](NCc2cc(Br)cc(Br)c2N)CC1 [E/6001] ?
OUTPUT: 3850

INPUT: Cc1cccc(OCC(=O)O[C@H]2CC[C@H](NCc3cc(Br)cc(Br)c3N)CC2)c1 [E/6003] ?
OUTPUT: 3700

INPUT: COc1cc(C)ccc1OCC(=O)O[C@H]1CC[C@H](NCc2cc(Br)cc(Br)c2N)CC1 [E/6002] ?
OUTPUT: 4000

====

Quick reference: LD50 of the listed items.
# PROTOCOL_TEXT: Acute toxicity in the rat (DL50, Litchfield and Wilcoxon method)
# REPORTED_CONDITIONS: in vivo, po, os
Answer format reminder: number followed by unit.

# example entries with known answers
1) COc1cc(C)ccc1OCC(=O)O[C@H]1CC[C@H](NCc2cc(Br)cc(Br)c2N)CC1 [E/6002] :: 19600 mg/kg
2) Cc1cccc(OCC(=O)O[C@H]2CC[C@H](NCc3cc(Br)cc(Br)c3N)CC2)c1 [E/6003] :: 18000 mg/kg
3) Cc1ccc(OCC(=O)O[C@H]2CC[C@H](NCc3cc(Br)cc(Br)c3N)CC2)cc1 [E/6005] :: 17800 mg/kg

INPUT: Consider the compound Cc1ccccc1OCC(=O)O[C@H]1CC[C@H](NCc2cc(Br)cc(Br)c2N)CC1 [E/6004] and give its measured LD50.
OUTPUT: 18000 mg/kg

INPUT: Cc1ccc(C(C)C)cc1OCC(=O)O[C@H]1CC[C@H](NCc2cc(Br)cc(Br)c2N)CC1 [E/6007] ?
OUTPUT: 18500 mg/kg

INPUT: Nc1c(Br)cc(Br)cc1CN[C@H]1CC[C@H](O)CC1 [Ambroxol Hydrochlorate, reference compound] ?
OUTPUT: 13400 mg/kg

INPUT: COc1ccccc1OCC(=O)O[C@H]1CC[C@H](NCc2cc(Br)cc(Br)c2N)CC1 [E/6001] ?
OUTPUT: 18700 mg/kg

INPUT: Cc1ccc(C(C)C)c(OCC(=O)O[C@H]2CC[C@H](NCc3cc(Br)cc(Br)c3N)CC2)c1 [E/6006] ?
OUTPUT: 19000 mg/kg

====

Quick reference: LD50 of the listed items.
# PROTOCOL_TEXT: Acute toxicity in the mouse (DL50, Litchfield and Wilcoxon method)
# Format: in vivo
# REPORTED_CONDITIONS: in vivo, ip
# Procedure: where R is as defined above, in the presence of an alkaline carbonate and of a catalyst, to obtain the corresponding formula (I) compound, as defined above, which, optionally, is salified. […] The complete reliability of the new compounds was determined by evaluating their acute toxicity. […] The DL50 values were calculated by following the Litchfield and Wilcoxon method (Pharm. Exp. Therap. 1949, 96,99).
// note: answer is a bare numeric in mg/kg

1) COc1cc(C)ccc1OCC(=O)O[C@H]1CC[C@H](NCc2cc(Br)cc(Br)c2N)CC1 :: 390

INPUT: Consider the compound Cc1ccc(C(C)C)cc1OCC(=O)O[C@H]1CC[C@H](NCc2cc(Br)cc(Br)c2N)CC1 and give its measured LD50.
OUTPUT: 390

INPUT: Nc1c(Br)cc(Br)cc1CN[C@H]1CC[C@H](O)CC1 [Ambroxol Hydrochlorate, reference compound] ?
OUTPUT: 268

INPUT: Cc1ccc(C(C)C)c(OCC(=O)O[C@H]2CC[C@H](NCc3cc(Br)cc(Br)c3N)CC2)c1 ?
OUTPUT: 380

INPUT: Cc1cccc(OCC(=O)O[C@H]2CC[C@H](NCc3cc(Br)cc(Br)c3N)CC2)c1 ?
OUTPUT: 360

INPUT: Cc1ccc(OCC(=O)O[C@H]2CC[C@H](NCc3cc(Br)cc(Br)c3N)CC2)cc1 ?
OUTPUT: 360

INPUT: COc1ccccc1OCC(=O)O[C@H]1CC[C@H](NCc2cc(Br)cc(Br)c2N)CC1 ?
OUTPUT: 375

INPUT: Cc1ccccc1OCC(=O)O[C@H]1CC[C@H](NCc2cc(Br)cc(Br)c2N)CC1 ?
OUTPUT: 365
